Test system: Escherichia coli TOP10;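 note: peptides expressed intracellularly from a pBAD plasmid library in pooled LB shake-flask culture, induced with 0.3% L-arabinose, DNA abundance read by NGS, three biological replicates, DESeq2 with apeglm shrinkage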
Test: shrunken log2 fold change of peptide-encoding DNA abundance (4.5 h post-induction vs induction); higher = less antimicrobial activity (less host growth inhibition)
Conditions: time post-induction: 4.5 h; library: site-saturation at positions 5, 18, 19, 20
Mark satisfied for reported shrunken log2 fold change of 0.004 or greater; mark not satisfied for anything smaller.

1. RRIRCRPPRLPRPRPRPSLNPRP	not satisfied
2. RRIRERPPRLPRPRPRPAHKPRP	not satisfied
3. RRIRDRPPRLPRPRPRPSFYPRP	not satisfied
4. RRIRIRPPRLPRPRPRPPDGPRP	satisfied
5. RRIRERPPRLPRPRPRPESLPRP	satisfied
6. RRIRMRPPRLPRPRPRPIENPRP	not satisfied
7. RRIRMRPPRLPRPRPRPRPMPRP	satisfied
8. RRIRFRPPRLPRPRPRPVRFPRP	satisfied
9. RRIRCRPPRLPRPRPRPTEGPRP	satisfied

The reported numbers originate from the supplement of paper PMC9112550.
